experiment: antagonists of CRF-BP/CRF-R2 complex, primary screen, cell-based, HEK293, calcium dye fluorescence, uHTS (AID 588475)
condition_description: CRF-induced calcium fluorescence, at 11.8 µM, stronger effect = higher value
Hit rate of the full screen: of about 350,000 compounds, about 2,100 (0.6%) were called active. What follows is part of a selection rich in actives, with near analogues and random picks from the rest.
test_readout: inhibition

Previously resolved entries follow.
Cc1ccsc1/C=N/NC(=O)Cc1cc(=O)[nH][nH]1 | 14.1% (inactive)
CN(CCC(=O)Nc1cc(S(=O)(=O)N(C)C)ccc1Cl)CC(=O)Nc1ccc(F)cc1 | -7.88% (inactive)

Read the next record carefully.
Quick one: inhibition of `O=C(OCC(=O)N1CCc2ccccc21)c1ccc([N+](=O)[O-])cc1` ? -3.17% (inactive)

Reference source: PubChem BioAssay AID588475
